B1: TPR t1 (parent)
chain: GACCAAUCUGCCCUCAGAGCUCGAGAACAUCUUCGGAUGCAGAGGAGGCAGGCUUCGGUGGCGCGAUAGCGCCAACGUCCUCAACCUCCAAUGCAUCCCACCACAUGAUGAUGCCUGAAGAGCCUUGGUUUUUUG

Variants of: B1
Assay: polymerase ribozyme fitness, log enrichment relative to wild type (log ratio); higher = more active; in vitro selection for triplet polymerase activity
Below, each of the variants is paired with its reported polymerase ribozyme fitness (log ratio) value.

What the record says about A46U G135C : polymerase ribozyme fitness (log ratio) is -1.33

response.value for C94A G117U U129A (field: polymerase ribozyme fitness (log ratio)) = -4.44

// U81G C94G G117U : polymerase ribozyme fitness (log ratio) value = -6.8

The reported polymerase ribozyme fitness (log ratio) of the variant A5U C53A C72U C104U G113C was -2.38
